Source listed as ChEMBL document CHEMBL1157539.

log10 XC50 for assorted molecules
System: Plasmodium falciparum
Assay: GSK_TCMDC: Inhibition of Plasmodium falciparum 3D7 in whole erythrocytes, using parasite LDH activity as an index of growth.
Type: functional, organism-based
Details: Plasmodium falciparum, 3D7
Parameter value (number): base-10 log of XC50 in nM.

As a guide, the following entries are already answered.
[
  {
    "molecule": "Cc1[nH]c(C)c(-c2ccc(OCc3cc(F)cc(F)c3)nc2)c(=O)c1Cl",
    "system under test": "Plasmodium falciparum",
    "measure name": "log10 XC50",
    "result value": 1.94
  },
  {
    "molecule": "COc1c(C2CCN(CCCCNC(=O)c3ccc(-c4ccc(C#N)cc4)c(O)c3)CC2)ccc2c1CCCC2",
    "system under test": "Plasmodium falciparum",
    "measure name": "log10 XC50",
    "result value": 2.30
  },
  {
    "molecule": "CC(Cc1ccc(C2=CCNCC2)cc1)NCC(O)c1cccc(C(F)(F)F)c1 (stereo not given)",
    "system under test": "Plasmodium falciparum",
    "measure name": "log10 XC50",
    "result value": 3.20
  }
]

QUERY: Give the measured log10 XC50 of "c1ccc(-c2cc(NCCCn3ccnc3)nc(-c3cccnc3)n2)cc1" .
RESULT: 2.99

QUERY: Here is the next molecule: "Cc1noc(C)c1-c1cccc(CNCc2ccc(-c3cccc(-c4nc5cc(F)ccc5[nH]4)c3)cc2)c1"
RESULT: 2.74
